B1: library; a variant is named by its letters at N, in order (parent)
chain: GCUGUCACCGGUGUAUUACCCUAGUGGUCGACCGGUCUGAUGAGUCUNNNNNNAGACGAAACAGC

variants of: B1; test: FACS-Seq fitted mean relative fluorescence mCherry/BFP with ligand (log10 relative fluorescence); ligand: hypoxanthine (xanthine aptamer); ligand concentration (+) FACS-Seq: 5 mM; higher = higher reporter protein expression; conditions: HEK293T, ligand present: yes
quantity_measured: FACS-Seq fitted mean (log10)

Below, 5 variants whose answers are already recorded.
Give FACS-Seq fitted mean (log10) for the following variant: GCUGUCACCGGUGUAUUACCCUAGUGGUCGACCGGUCUGAUGAGUCUCCUUGCAGACGAAACAGC [CCUUGC]
-0.0481

Give FACS-Seq fitted mean (log10) for the following variant: GCUGUCACCGGUGUAUUACCCUAGUGGUCGACCGGUCUGAUGAGUCUCAAGCAAGACGAAACAGC [CAAGCA]
0.609

Give FACS-Seq fitted mean (log10) for the following variant: GCUGUCACCGGUGUAUUACCCUAGUGGUCGACCGGUCUGAUGAGUCUGGGAGCAGACGAAACAGC [GGGAGC]
0.622

Give FACS-Seq fitted mean (log10) for the following variant: GCUGUCACCGGUGUAUUACCCUAGUGGUCGACCGGUCUGAUGAGUCUAGCUGGAGACGAAACAGC [AGCUGG]
-0.291

Give FACS-Seq fitted mean (log10) for the following variant: GCUGUCACCGGUGUAUUACCCUAGUGGUCGACCGGUCUGAUGAGUCUGACAAAAGACGAAACAGC [GACAAA]
0.0426

***
Give FACS-Seq fitted mean (log10) for the following variant: GCUGUCACCGGUGUAUUACCCUAGUGGUCGACCGGUCUGAUGAGUCUAAGAAAAGACGAAACAGC [AAGAAA]
0.598

Give FACS-Seq fitted mean (log10) for the following variant: GCUGUCACCGGUGUAUUACCCUAGUGGUCGACCGGUCUGAUGAGUCUCUUCCCAGACGAAACAGC [CUUCCC]
0.0439

Give FACS-Seq fitted mean (log10) for the following variant: GCUGUCACCGGUGUAUUACCCUAGUGGUCGACCGGUCUGAUGAGUCUUCGGGAAGACGAAACAGC [UCGGGA]
0.767

Give FACS-Seq fitted mean (log10) for the following variant: GCUGUCACCGGUGUAUUACCCUAGUGGUCGACCGGUCUGAUGAGUCUCGAGAAAGACGAAACAGC [CGAGAA]
0.65

Give FACS-Seq fitted mean (log10) for the following variant: GCUGUCACCGGUGUAUUACCCUAGUGGUCGACCGGUCUGAUGAGUCUAGCAAGAGACGAAACAGC [AGCAAG]
0.87

Give FACS-Seq fitted mean (log10) for the following variant: GCUGUCACCGGUGUAUUACCCUAGUGGUCGACCGGUCUGAUGAGUCUCUGAGGAGACGAAACAGC [CUGAGG]
0.466

Give FACS-Seq fitted mean (log10) for the following variant: GCUGUCACCGGUGUAUUACCCUAGUGGUCGACCGGUCUGAUGAGUCUAUGAAGAGACGAAACAGC [AUGAAG]
0.639

Give FACS-Seq fitted mean (log10) for the following variant: GCUGUCACCGGUGUAUUACCCUAGUGGUCGACCGGUCUGAUGAGUCUCAGACAAGACGAAACAGC [CAGACA]
0.74

Give FACS-Seq fitted mean (log10) for the following variant: GCUGUCACCGGUGUAUUACCCUAGUGGUCGACCGGUCUGAUGAGUCUUUCGAUAGACGAAACAGC [UUCGAU]
0.303

Give FACS-Seq fitted mean (log10) for the following variant: GCUGUCACCGGUGUAUUACCCUAGUGGUCGACCGGUCUGAUGAGUCUGUGGCGAGACGAAACAGC [GUGGCG]
0.342

Give FACS-Seq fitted mean (log10) for the following variant: GCUGUCACCGGUGUAUUACCCUAGUGGUCGACCGGUCUGAUGAGUCUCGUUAAAGACGAAACAGC [CGUUAA]
0.118

Give FACS-Seq fitted mean (log10) for the following variant: GCUGUCACCGGUGUAUUACCCUAGUGGUCGACCGGUCUGAUGAGUCUCUUUAGAGACGAAACAGC [CUUUAG]
0.386
